Below is a list of entries, each paired with its recorded minimal effective dose value.
Tested on: P388
test description: Minimum effective dose required for antitumor activity against P-388 murine leukemia cells in mice.
Format: functional
test parameters: Mus musculus, read-out: MED

compound: COC12[C@@H]3N[C@@H]3CN1C1=C(C(=O)C(N3CC=CC3)=C(C)C1=O)[C@@H]2COC(N)=O (some centres not stated)
assay target: P388
result units: mg/kg
minimal effective dose: 0.2

compound: COC12[C@@H]3N[C@@H]3CN1C1=C(C(=O)C(N3CCC(O)C3)=C(C)C1=O)[C@@H]2COC(N)=O (some centres not stated)
assay target: P388
result units: mg/kg
minimal effective dose: 0.8

compound: COC12[C@@H]3N[C@@H]3CN1C1=C(C(=O)C(N3CCCC(O)C3)=C(C)C1=O)[C@@H]2COC(N)=O (some centres not stated)
assay target: P388
result units: mg/kg
minimal effective dose: 0.2

compound: COC(=O)C1CN1C1=C(C)C(=O)C2=C(C1=O)[C@H](COC(N)=O)C1(OC)[C@@H]3N[C@@H]3CN21 (some centres not stated)
assay target: P388
result units: mg/kg
minimal effective dose: 1.6

compound: COC12[C@@H]3N[C@@H]3CN1C1=C(C(=O)C(N3CCSCC3)=C(C)C1=O)[C@@H]2COC(N)=O (some centres not stated)
assay target: P388
result units: mg/kg
minimal effective dose: 0.4

compound: COC12[C@@H]3N[C@@H]3CN1C1=C(C(=O)C(N3CCc4ccccc43)=C(C)C1=O)[C@@H]2COC(N)=O (some centres not stated)
assay target: P388
result units: mg/kg
minimal effective dose: 0.8

compound: COC12[C@@H]3N[C@@H]3CN1C1=C(C(=O)C(N(C)CCN(C)C)=C(C)C1=O)[C@@H]2COC(N)=O (some centres not stated)
assay target: P388
result units: mg/kg
minimal effective dose: 0.8
